The reported measurements were obtained from the supplement of paper PMC10567573.

B1: TMEM120A (parent)
chain: YQSFVQFLQYYYQSGCLYRLRALG

- Variants of: B1
- assay: protein stability index of a GFP-peptide fusion (GPS, HEK-293T) (PSI 1-6); higher = more stable;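 note: lentivirally expressed fusions sorted by FACS into six bins by GFP to DsRed ratio, PSI derived from sequencing read proportions per bin multiplied by bin number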
- assayConditions: c terminus: a fixed tail appended
I would appreciate it if you labelled entries yes (1) when protein stability index is 3 or higher, otherwise no (0).

{"variantSpec": "F7W", "answerLabel": "yes (1)"}

Ask: Please check the record `F4L` and state if its protein stability index is at or above 3.
Reply: yes (1)

Ask: Could you please find out whether `S3Y` has protein stability index that meets 3 or exceeds it?
Reply: yes (1)

Ask: Entry `Q2M` : is its protein stability index no less than 3?
Reply: yes (1)

Ask: Item `L8W` with protein stability index of 3 or above?
Reply: no (0)

Ask: Has `G24W` a recorded protein stability index greater than or equal to 3?
Reply: no (0)
